Data origin: patent US12077503B2

Property: pest or weed control at 500 g/ha; scope: individual molecules
System: blackgrass (Alopecurus myosuroides)
procedure-details: Test A postemergence
Type: in vivo
condition-set: Alopecurus myosuroides, post-emergence, 240 h, Postemergence, 500 g ai/ha; visual injury, 0 to 100 scale (0 no effect, 100 complete control), approx. 10 d; read-out: Plant response rating, Blackgrass
Use % as the unit, but write only the number.

Before answering, review these 4 worked examples.
- smiles-input: "CN1C[C@H](c2ccc(C(F)(F)F)cc2)[C@@H](C(=O)Nc2ccccc2)C1=O"
  reported-measurement: 50
- smiles-input: "CN1C[C@H](c2ccc(C(F)(F)F)nc2)[C@@H](C(=O)Nc2ccc(F)c(F)c2F)C1=O"
  reported-measurement: 60
- smiles-input: "CN1C[C@H](c2cccc(C(F)(F)F)c2)[C@@H](C(=O)Nc2ccc(F)cc2C(F)(F)F)C1=O"
  reported-measurement: 60
- smiles-input: "CN1CC[C@H](c2cccc(C(F)(F)F)c2)[C@@H](C(=O)Nc2ccc(F)c(F)c2F)C1=O"
  reported-measurement: 0

# next molecule below
QUERY: Value lookup for pest or weed control at 500 g/ha; key = `CN1C[C@H](c2ccc3c(c2)CCO3)[C@@H](C(=O)Nc2ccccc2F)C1=O`
RESULT: 50

* * *

Test system: barnyardgrass (Echinochloa crus-galli)
procedure-details: Test A preemergence
Type: in vivo
condition-set: Echinochloa crus-galli, pre-emergence, 240 h, 125 g ai/ha, preemergence; 0 to 100 scale where 0 is no effect and 100 is complete control; approx. 10 d; read-out: Barnyardgrass plant response rating
quantity-kind: pest or weed control at 125 g/ha

Use the examples below as a reference point.
- smiles-input: "O=C1NC[C@H](c2csc3c2CCC3)[C@H]1C(=O)Nc1cccc(F)c1F"
  target-entity: "barnyardgrass (Echinochloa crus-galli)"
  pest or weed control at 125 g/ha: "80%"
- smiles-input: "O=C(Nc1ccc(F)c(F)c1F)[C@H]1C(=O)N(O)CC[C@@H]1c1ccc(C(F)(F)F)cc1"
  target-entity: "barnyardgrass (Echinochloa crus-galli)"
  pest or weed control at 125 g/ha: "0%"
- smiles-input: "CN1C[C@H](c2cc(F)cc(C(F)(F)F)c2)[C@@H](C(=O)Nc2cccnc2F)C1=O"
  target-entity: "barnyardgrass (Echinochloa crus-galli)"
  pest or weed control at 125 g/ha: "90%"
- smiles-input: "CN1C[C@H](c2csc3c2CCCC3)[C@@H](C(=O)Nc2ccc(F)c(F)c2F)C1=O"
  target-entity: "barnyardgrass (Echinochloa crus-galli)"
  pest or weed control at 125 g/ha: "80%"
- smiles-input: "CN1C[C@H](c2csc3c2CCOC3)[C@@H](C(=O)Nc2ccc(F)c(F)c2F)C1=O"
  target-entity: "barnyardgrass (Echinochloa crus-galli)"
  pest or weed control at 125 g/ha: "100%"

QUERY: Which pest or weed control at 125 g/ha value is on record for `Cc1c(F)cccc1NC(=O)[C@H]1C(=O)NC[C@@H]1c1cc(F)c(F)c(F)c1` ?
RESULT: 90%

QUERY: Do the same for `Cc1ccc([C@H]2CN(C)C(=O)[C@@H]2C(=O)Nc2cnccc2C)cc1` please
RESULT: 0%

* * *

Test system: ryegrass, Italian (Italian ryegrass, Lolium multiflorum)
procedure-details: Test C preemergence
Type: in vivo
condition-set: 62 g ai/ha, scale 0 to 100, 0 no effect, 100 complete control
Below, each entry is listed with its recorded Plant response rating, Ryegrass, Italian.

QUERY: Please tell me: Plant response rating, Ryegrass, Italian of CN1CC(c2ccc(C(F)(F)F)c(F)c2)C(C(=O)Nc2ccccc2F)C1=O (centres unmarked) [Compound 399] , system ryegrass, Italian (Italian ryegrass, Lolium multiflorum)?
RESULT: 50

QUERY: What would you report for CN1CC(c2ccc(F)c(C(F)(F)F)c2)C(C(=O)Nc2ccccc2S(C)(=O)=O)C1=O (centres unmarked) [Compound 612] ?
RESULT: 40

QUERY: Now the same for O=C1NCC(c2ccc(Br)cc2)C1C(=O)Nc1cccc(F)c1F (centres unmarked) [Compound 446]
RESULT: 0

QUERY: Cc1ccc(C2CN(C)C(=O)C2C(=O)Nc2ccccc2S(C)(=O)=O)cc1 (centres unmarked) [Compound 663] ?
RESULT: 70

QUERY: Next molecule: CN1CC(c2cc(F)cc(F)c2)C(C(=O)Nc2cccc(F)c2F)C1=O (centres unmarked) [Compound 644]
RESULT: 55

* * *

Tested on: pigweed (Amaranthus retroflexus)
procedure-details: Test A postemergence
Assay type: in vivo
condition-set: 500 g ai/ha, postemergence; 0 to 100 scale, 0 no effect, 100 complete control
quantity-kind: Plant response rating, Pigweed
Hey, just send me the number, nothing else.

Examples with answers:
- molecule: "COc1ccc(NC(=O)C2C(=O)NCC2c2cccc(OC(F)F)c2)c(F)c1 (stereo not shown)"
  Plant response rating, Pigweed: 0
- molecule: "CCc1ccc(C2CNC(=O)C2C(=O)Nc2ccccc2F)cc1 (stereo not shown)"
  Plant response rating, Pigweed: 0
- molecule: "Cc1cccc(C2CNC(=O)C2C(=O)Nc2ccccc2C(F)(F)F)c1 (racemic)"
  Plant response rating, Pigweed: 0
- molecule: "CN1CC(c2ccc3c(c2)OC(F)(F)O3)C(C(=O)Nc2ccccc2S(C)(=O)=O)C1=O (stereo not shown)"
  Plant response rating, Pigweed: 50

QUERY: # query: Plant response rating, Pigweed | item CN1CC(c2ccc(C(F)(F)F)c(F)c2)C(C(=O)Nc2cccc(F)c2F)C1=O (stereo not shown) | system: pigweed (Amaranthus retroflexus)
RESULT: 70

QUERY: Do the same for O=C1NCC(c2cccc(F)c2)C1C(=O)Nc1cccc(F)c1F (racemic) please
RESULT: 50

QUERY: Next: CC(C)Oc1cccc(C2CN(C)C(=O)C2C(=O)Nc2ccc(F)cc2F)c1 (stereo not shown)
RESULT: 50

QUERY: Try Cc1ccc(C2CN(C)C(=O)C2C(=O)Nc2ccccc2F)cc1F (stereo not shown) next.
RESULT: 20

QUERY: And for O=C1NCC(c2ccc(Br)cc2)C1C(=O)Nc1ccccc1F (stereo not shown) ?
RESULT: 40

QUERY: Moving on to the next molecule: CN1CC(c2ccc(C(F)(F)F)c(F)c2)C(C(=O)Nc2ccccc2F)C1=O (stereo not shown)
RESULT: 40

* * *

System: ragweed (common ragweed, Ambrosia elatior)
procedure-details: Test A postemergence
Format: in vivo
condition-set: Ambrosia artemisiifolia, post-emergence, 240 h, 125 g ai/ha, Postemergence; visual injury after approximately 10 d; 0 to 100 scale where 0 is no effect and 100 is complete control; read-out: Plant response rating, Ragweed
quantity-kind: pest or weed control at 125 g/ha (%)
Hi! Could you send only the number? It should be in %, unit omitted.

Sample records with pest or weed control at 125 g/ha:
- compound: "CC(C)Oc1ccc([C@H]2CN(C)C(=O)[C@@H]2C(=O)Nc2cccc(F)c2F)cc1"
  pest or weed control at 125 g/ha / %: 0
- compound: "COc1c(F)ccc([C@H]2CNC(=O)[C@@H]2C(=O)Nc2ccccc2S(C)(=O)=O)c1Cl"
  pest or weed control at 125 g/ha / %: 0
- compound: "Cc1ccc([C@H]2CCNC(=O)[C@@H]2C(=O)Nc2cccc(F)c2F)cc1"
  pest or weed control at 125 g/ha / %: 0

QUERY: # query: pest or weed control at 125 g/ha of entry Cc1ccc([C@H]2CNC(=S)[C@@H]2C(=O)Nc2cccc(F)c2F)cc1 (racemic)
RESULT: 0

QUERY: Try this compound too: `CN1CC[C@H](c2ccccc2C(F)(F)F)[C@@H](C(=O)Nc2cccc(F)c2F)C1=O`
RESULT: 0

QUERY: Quick one: `O=C1NC[C@H](c2cccc(C(F)(F)F)n2)[C@H]1C(=O)Nc1ccccc1F`
RESULT: 0

QUERY: Try this compound too: `CC(C)COc1cccc([C@H]2CNC(=O)[C@@H]2C(=O)Nc2ccc(F)cc2F)c1`
RESULT: 0

QUERY: Same question for `CN1C[C@H](c2ccc(C(F)(F)F)cc2)[C@@H](C(=O)Nc2cccc(F)c2Cl)C1=O` please.
RESULT: 0

* * *

Test system: blackgrass (Alopecurus myosuroides)
procedure-details: Test A postemergence
Type: in vivo
condition-set: Alopecurus myosuroides, post-emergence, 240 h, 500 g ai/ha, postemergence; visual injury, 0 to 100 scale (0 no effect, 100 complete control), approx. 10 d; read-out: Plant response rating, Blackgrass
quantity-kind: pest or weed control at 500 g/ha (%)
Number in %, nothing else.

- molecule: "Cc1ccc([C@H]2CN(C)C(=O)[C@@H]2C(=O)Nc2ccccc2F)cc1C"
  unit-abbreviation: "%"
  pest or weed control at 500 g/ha: 50
- molecule: "O=C(Nc1ccccc1C(F)(F)F)[C@H]1C(=S)NC[C@@H]1c1ccc(C(F)(F)F)cc1 (racemic)"
  unit-abbreviation: "%"
  pest or weed control at 500 g/ha: 0
- molecule: "O=C(Nc1cccc(F)c1F)[C@H]1C(=S)NC[C@@H]1c1ccc(C(F)(F)F)cc1 (racemic)"
  unit-abbreviation: "%"
  pest or weed control at 500 g/ha: 30

QUERY: Write down the reported pest or weed control at 500 g/ha of `O=C1NC[C@H](c2ccc3c(c2)CCC3)[C@H]1C(=O)Nc1ccccc1F` , test system: blackgrass (Alopecurus myosuroides).
RESULT: 60

QUERY: // repeat for `CN1CC[C@H](c2ccccc2)[C@@H](C(=O)Nc2ccccc2F)C1=O` and report
RESULT: 0
